- SUBJECT OF TEST: BSA (UniProt P02769)
- Sequence (P02769 25-607 limits assumed): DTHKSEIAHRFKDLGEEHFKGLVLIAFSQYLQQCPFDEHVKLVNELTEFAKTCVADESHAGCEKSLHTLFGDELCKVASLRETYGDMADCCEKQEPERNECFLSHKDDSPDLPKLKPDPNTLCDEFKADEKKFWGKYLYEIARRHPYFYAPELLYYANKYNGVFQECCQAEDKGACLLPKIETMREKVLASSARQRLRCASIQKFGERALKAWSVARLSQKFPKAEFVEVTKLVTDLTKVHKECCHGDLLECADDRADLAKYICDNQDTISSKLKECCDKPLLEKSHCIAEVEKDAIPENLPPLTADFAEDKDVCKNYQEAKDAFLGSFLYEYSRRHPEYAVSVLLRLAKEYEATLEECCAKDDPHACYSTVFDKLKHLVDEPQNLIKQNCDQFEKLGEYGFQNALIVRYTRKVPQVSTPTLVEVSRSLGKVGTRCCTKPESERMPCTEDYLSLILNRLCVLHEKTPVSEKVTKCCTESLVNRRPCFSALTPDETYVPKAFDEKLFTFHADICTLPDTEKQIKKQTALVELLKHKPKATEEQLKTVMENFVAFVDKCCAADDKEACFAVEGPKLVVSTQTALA
- PROTOCOL NOTES: scFv ELISA
MEASURED ATTRIBUTE: OD450 (OD450)
A number alone suffices; assume OD450.

Let me know recorded OD450 for PcOxP_DB04_G09 (scFv, V domains shown, scFv in periplasmic extract) VH: EVQLLESGGGLVQPGGSLRLSCAASGNTFSDFYMEWVRQAPGKGLEWVAASRNKWNDYTTEYADSVKGRFTISRDNSKNTLYLQMNSLRAEDTAVYYCARDYYGSSYWYFDVWGQGTLVTVSS VL: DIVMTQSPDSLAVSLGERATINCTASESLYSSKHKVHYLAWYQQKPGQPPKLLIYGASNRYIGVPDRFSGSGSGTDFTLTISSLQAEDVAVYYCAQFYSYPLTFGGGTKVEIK , thanks.
0.08

Let me know recorded OD450 for PcOxP_DB04_A07 (scFv, V domains shown, scFv in periplasmic extract) VH: EVQLLESGGGLVQPGGSLRLSCAASGFTQSDFYMEWVRQAPGKGLEWVAASRNKANDYTTEYADSVKGRFTISRDNSKNTLYLQMNSLRAEDTAVYYCARDYYGSSYWYFDVWGQGTLVTVSS VL: DIQMTQSPSSLSASVGDRVTITCTASESLYSSKHKVHYLAWYQQKPGKAPKLLIYGISNRYIGVPSRFSGSGSGTDFTLTISSLQPEDFATYYCAQFYSYPLTFGGGTKVEIK , thanks.
0.09

Let me know recorded OD450 for PcOxP_DB03_B06 (scFv, V domains shown, scFv in periplasmic extract) VH: EVQLLESGGGLVQPGGSLRLSCAASGITFSDFYMEWVRQAPGKGLEWVAASRNKYNDYTTEYADSVKGRFTISRDNSKNTLYLQMNSLRAEDTAVYYCARDYYGSSYWYFDVWGQGTLVTVSS VL: DIVMTQSPDSLAVSLGERATINCTASESLYSSKHKVHYLAWYQQKPGQPPKLLIYGASNRYTGVPDRFSGSGSGTDFTLTISSLQAEDVAVYYCAQFYSYPLTFGGGTKVEIK , thanks.
0.06

Let me know recorded OD450 for PcOxP_DB01_B10 (scFv, V domains shown, scFv in periplasmic extract) VH: EVQLLESGGGLVQPGGSLRLSCAASGFTFSDFYMEWVRQAPGKGLEWVAASRNKANDYTTTYADSVKGRFTISRDNSKNTLYLQMNSLRAEDTAVYYCARDYYGSSHWYFDVWGQGTLVTVSS VL: DIVMTQSPDSLAVSLGERATINCTASESLYSSKGKVHYLAWYQQKPGQPPKLLIYGASNRYIGVPDRFSGSGSGTDFTLTISSLQAEDVAVYYCVQFYSYPLTFGGGTKVEIK , thanks.
0.08

Let me know recorded OD450 for PcOxP_DB03_G02 (scFv, V domains shown, scFv in periplasmic extract) VH: EVQLLESGGGLVQPGGSLRLSCAASGFTFSDGYIEWVRQAPGKGLEWVAASRNKANDYTTEYADSVKGRFTISRDNSKNTLYLQMNSLRAEDTAVYYCARDYYGSSYWYFDVWGQGTLVTVSS VL: DIQMTQSPSSLSASVGDRVTITCTASEELYSSKHKVHYLAWYQQKPGKAPKLLIYGASNRYIGVPSRFSGSGSGTDFTLTISSLQPEDFATYYCAQFYSYPLTFGGGTKVEIK , thanks.
0.07
